Tgt: cynomolgus LIV-1 (cynomolgus, UniProt A0A2K5WH46 30-741)
Sequence (A0A2K5WH46 entry or part of it): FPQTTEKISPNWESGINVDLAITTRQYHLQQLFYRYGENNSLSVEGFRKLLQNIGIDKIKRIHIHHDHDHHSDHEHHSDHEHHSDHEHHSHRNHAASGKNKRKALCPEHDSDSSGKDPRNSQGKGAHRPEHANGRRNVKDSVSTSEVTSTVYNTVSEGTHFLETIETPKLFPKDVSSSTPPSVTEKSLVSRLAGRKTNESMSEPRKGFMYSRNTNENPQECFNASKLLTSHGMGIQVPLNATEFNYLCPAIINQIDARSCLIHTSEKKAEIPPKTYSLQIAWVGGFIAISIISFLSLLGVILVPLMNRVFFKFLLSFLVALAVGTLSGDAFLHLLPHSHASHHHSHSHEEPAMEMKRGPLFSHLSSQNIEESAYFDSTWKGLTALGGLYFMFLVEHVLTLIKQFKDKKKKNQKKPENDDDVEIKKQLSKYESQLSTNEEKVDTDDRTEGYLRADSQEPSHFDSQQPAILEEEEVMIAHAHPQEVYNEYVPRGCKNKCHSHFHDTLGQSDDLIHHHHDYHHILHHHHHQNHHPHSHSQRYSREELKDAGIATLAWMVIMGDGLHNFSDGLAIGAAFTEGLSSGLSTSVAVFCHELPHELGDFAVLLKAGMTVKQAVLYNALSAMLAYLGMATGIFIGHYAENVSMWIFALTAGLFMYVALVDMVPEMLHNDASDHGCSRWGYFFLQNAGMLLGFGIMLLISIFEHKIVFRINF
Test Summary: FACS, HEK293/Cyno_LIV-1 cells
Measured EC50 by item
I only need the number, in nM, no unit after it.

Please review the following examples before continuing.
Binder: 5D6B10.Z9 (antibody, V domains shown) VH: QVQLVQSGGGVVQPGRSLRLSCTVSGFSLTTYGIHWVRQSPGKGLEWLGVIWTGGTTDYNAAFISRLTISKDNSKSTVYFQMNSLQAEDTAIYYCARGPSSYWGQGTLVTVSS VL: DIVMTQSPATLSVSPGERVTVSCKASQNVDTNVVWYQQKPGQSPRALIHSASYRYSGVPDRFSGSGSGTDFTLTISSVQSEDFAVYFCQQYNNYPWTFGGGTKLEIK
Units Symbol: nM
Data Value: 0.23
--
Binder: 124H4D11.p2.z2 (antibody, V domains shown) VH: QVQLVQSGAEVVKPGASVKVSCKASGFNIKDYYMHWVRQAPGQGLEWIGWIDPENDDTEYDPKFQGRVTMTADTSTSTVYMELSSLRSEDTAVYYCAARYYAFDYWGQGTMVTVSS VL: DVLMTQSPSSLSASVGDRVTITCRSSQSIVHSNANTYLEWYLQKPGKSPKLLIYKVSNRFSGVPDRFSGSGSGTEFTLTISSVQPEDFAVYYCFQGSQVPPTFGQGTRLEIK
Units Symbol: nM
Data Value: 0.2

In: Which measured EC50 value corresponds to 124H4D11.p2.z5 (antibody, V domains shown) VH: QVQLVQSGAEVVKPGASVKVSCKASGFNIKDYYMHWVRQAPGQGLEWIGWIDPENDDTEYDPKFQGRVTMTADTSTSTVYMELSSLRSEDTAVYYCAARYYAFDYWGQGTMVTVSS VL: DVLMTQSPLSLPVTLGQPASISCRSSQSIVHSNANTYLEWYLQRPGQSPKLLIYKVSNRFSGVPDRFSGSGSGTEFTLKISRVEAEDLGVYYCFQGSQVPPTFGGGTKLEIK ?
Out: 0.25

In: Same thing, different binder: 5D6B10.Z5 (antibody, V domains shown) VH: QVQLVESGGGVVQPGRSLRLSCTVSGFSLTTYGIHWVRQSPGKGLEWLGVIWTGGTTDYNAAFISRLTISKDNSKSTLYFQMNSLRAEDTAVYYCARGPSSYWGQGTLVTVSS VL: EIVMTQSPATLSVSPGERATVSCKASQNVDTNVVWYQQKPGQSPRALIHSASYRYSGVPDRFSGSGSGTDFTLTISSLQSEDFAVYFCQQYNNYPWTFGQGTKVEIK
Out: 1.72
